Attribution: PubChem BioAssay AID1902

Tgt: S. pyogenes SKKanGAS, kanamycin survival, BacTiterGlo, 6 h
Measurement Protocol: S. pyogenes SKKanGAS kanamycin growth inhibitors – SKKanGAS strain, luminescence, dose confirmation, streptokinase promoter inhibitor project, dose response (AID 1902);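 also: lower survival reflects blocked streptokinase promoter driving kanamycin resistance gene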
Quantity Measured: EC50

Provide EC50 for all items below, preserving their order.
1. COc1cc(OC)c2cc(C(=O)N/N=C/c3ccccc3O)[nH]c2c1
2. Nc1ccc(-c2nc3nc(N)nc(N)c3nc2-c2ccc(N)cc2)cc1

Result block:
["1.1 µM", "3.77 µM"]

----------
Tgt: S. pyogenes SKKanGAS, kanamycin survival, BacTiterGlo, 6 h
Measurement Protocol: S. pyogenes SKKanGAS kanamycin growth inhibitors – SKKanGAS strain, luminescence, dose confirmation, streptokinase promoter inhibitor project, dose response (AID 1902)
Quantity Measured: EC50

Please review the entries below; each comes with its answer.
c1ccc(Oc2nc(-c3ccccn3)nc3ccccc23)cc1: 9410 nM
CCC(CC)c1nn2c(N)c(/C=C3\C(C)=Nc4ccccc43)c(=O)nc2s1: 2570 nM
COc1cccc(C(=O)Nc2nc(-c3ccccc3)c(-c3ccccc3)o2)c1: 881 nM
O=C(Nc1nnc(-c2ccc(Cl)cc2)o1)c1ccccc1Br: 1590 nM
O=C(N/N=C/c1c(O)ccc2ccccc12)c1ccc(Br)o1: 2300 nM

Now for a further compound.
Query block: Request - read-out EC50 | tested on S. pyogenes SKKanGAS, kanamycin survival, BacTiterGlo, 6 h | compound CC(C)=CCc1c(-c2ccc(O)cc2O)oc2cc3c(c(O)c2c1=O)C=CC(C)(C)O3
Result block: 1580 nM

----------
Tgt: S. pyogenes SKKanGAS, kanamycin survival, BacTiterGlo, 6 h
Measurement Protocol: S. pyogenes SKKanGAS kanamycin growth inhibitors – SKKanGAS strain, luminescence, dose confirmation, streptokinase promoter inhibitor project, dose response (AID 1902)
The source made the active and inactive calls.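 How the source made its calls: active means EC50 no more than a set limit of log units above the highest dose; inactive means the rest.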
Would you kindly list EC50 for each of these compounds?

Provide EC50 for all items below, preserving their order.
1. Cc1nnc(SCC2=C(C(=O)O)N3C(=O)C(NC(=O)Cn4ncc(Cl)c4C)C3SC2)s1 (stereo not given)
2. Cc1nnc(NC(=O)c2ccc(S(=O)(=O)N(C)Cc3ccccc3)cc2)o1

Result block:
< 60 nM
4710 nM

Provide EC50 for all items below, preserving their order.
1. C/C(=N\Nc1nc2ccc(Cl)cc2o1)c1ccccc1
2. O=C(O)c1ccc(N/N=C/c2ccc(-c3ccc(Br)cc3)o2)cc1
3. CCCC1CC(C(=O)NC(C(C)Cl)C2OC(SC)C(O)C(O)C2O)N(C)C1 (stereo not given)
4. O=C(NNC1=C(C(=O)C(F)(F)F)CCC1)c1ccc(Br)cc1
5. COc1ccc(NC(=O)c2nc[nH]c2C(=O)N[C@@H](CC(C)C)C(=O)OC(C)(C)C)cc1
6. CCCCCCCCCCCC(=O)c1c(O)cccc1O
7. CCn1cc(CN2CCC(C(=O)Nc3ccc(Oc4cccnc4)cc3)CC2)cn1

Result block:
2330 nM
2360 nM
< 60 nM
926 nM
3280 nM
1580 nM
> 15000 nM (inactive)

Query block: # EC50 lookup, item Cc1c(C)n(Cc2ccc(F)cc2)c2ccc(C(=O)N3CCN(c4ccccn4)CC3)cc12
Result block: 6100 nM

----------
Tgt: S. pyogenes SKKanGAS, kanamycin survival, BacTiterGlo, 6 h
Measurement Protocol: S. pyogenes SKKanGAS kanamycin growth inhibitors – SKKanGAS strain, luminescence, dose confirmation, streptokinase promoter inhibitor project, dose response (AID 1902)
Active and inactive are the calls of the source.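 The calls were made as follows: active = EC50 no more than a set limit of log units above the highest dose; inactive = the rest.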
Valid outcomes are listed here; reply with one: true (1) (active), false (0) (inactive)

See these solved cases before continuing.
N#Cc1ccc(NC(=O)Nc2ccc(Cl)cc2)cc1: true (1)
CC(Nc1nc(-c2ccccc2O)nc2ccccc12)c1ccccc1 (configuration not stated): true (1)
Cc1ccc2nc(N/C(=N/S(=O)(=O)c3ccc(F)cc3)c3ccccc3)sc2c1: true (1)
Cc1cccc(C)c1OCC(O)Cn1c2ccccc2c2ccccc21 (configuration not stated): true (1)

Query block: Entry CC(C)(C)c1ccc(C(=O)N/N=C/c2ccccn2)cc1 : call = ?
Result block: true (1)

Query block: # repeat for COC(=O)c1ccc(Cl)c(NC(=O)CSc2nnc(-c3ccncc3)o2)c1
Result block: false (0)

Query block: # repeat for CCn1c(SCC(=O)N2CC(C)OC(C)C2)nc2c([nH]c3ccccc32)c1=O (configuration not stated)
Result block: false (0)

Query block: # repeat for Cc1cc(Cl)ccc1NC(=S)NCCC(c1ccccc1)c1ccccc1
Result block: true (1)

Query block: # repeat for O=C(NCc1nnc(SCC(=O)N2CCOCC2)o1)c1c(F)cccc1F
Result block: false (0)

Query block: # repeat for COc1ccc(/C=c2\s/c(=C/C(=O)c3ccc(C)cc3)[nH]c2=O)cc1OC
Result block: true (1)

----------
Tgt: S. pyogenes SKKanGAS, kanamycin survival, BacTiterGlo, 6 h
Measurement Protocol: S. pyogenes SKKanGAS kanamycin growth inhibitors – SKKanGAS strain, luminescence, dose confirmation, streptokinase promoter inhibitor project, dose response (AID 1902);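 also: lower survival reflects blocked streptokinase promoter driving kanamycin resistance gene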
Active and inactive are the calls of the source.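 Rule for the calls: active = EC50 no more than a set limit of log units above the highest dose; inactive = the rest.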
Valid outcomes are listed here; reply with one: active, inactive

Query block: Entry CCOC(=O)C1=C(C)NC2=C(C(=O)c3ccccc32)C1c1ccc([N+](=O)[O-])o1 (stereo not given) : call = ?
Result block: active

Query block: # repeat for COc1ccc(C(=O)Nc2cccc(-c3ccc(N4CCOCC4)nn3)c2)cc1
Result block: inactive

Query block: # repeat for COc1ccc(C(C)=O)cc1COc1cc(C)c(Cl)c(C)c1
Result block: inactive

Query block: # repeat for O=S(=O)(Nc1c(S(=O)(=O)c2ccccc2)c2nc3ccccc3nc2n1C1CCCCC1)c1ccccc1
Result block: active

Query block: # repeat for COC(=O)C(C)NC(=S)N1CCN(c2c(F)cc3c(=O)c(C(=O)O)cn(C4CC4)c3c2OC)CC1C (stereo not given)
Result block: active

----------
Tgt: S. pyogenes SKKanGAS, kanamycin survival, BacTiterGlo, 6 h
Measurement Protocol: S. pyogenes SKKanGAS kanamycin growth inhibitors – SKKanGAS strain, luminescence, dose confirmation, streptokinase promoter inhibitor project, dose response (AID 1902);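 also: lower survival reflects blocked streptokinase promoter driving kanamycin resistance gene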
Quantity Measured: pEC50
Numbers only, as −log10 of the molar value.

Please review the entries below; each comes with its answer.
COc1ccc(Cl)cc1C(=O)NNC(=S)NC(=O)c1ccc(F)c(F)c1: 6.86
CCOC(=O)c1ccc(-n2c(O)c(/C=N/NC(=O)C3COc4ccccc4O3)c3ccccc3c2=O)cc1 (stereo not given): 5.81
CCCn1c(NC(=O)c2ccccc2)nc2ccccc21: 5.80
CCc1ccc(Nc2n[n+](-c3ccccc3)c(-c3c(Cl)cccc3Cl)s2)cc1: 5.21
Clc1cccc(Cl)c1C1Nc2cccc3cccc(c23)N1: 5.06
CCCc1nc2ccccc2c(C(=O)OCC(=O)Nc2ccc(S(=O)(=O)N3CCOCC3)cc2)c1CC: 5.15
O=C(/C=C/c1cccc(C(F)(F)F)c1)Nc1cccc(C(F)(F)F)c1: 5.48
O=c1c2c(nc3c(-c4ccc(Cl)cc4)c[nH]n13)CCC2: 5.47
COC(=O)/C=C1\SC(=Nc2ccc(Cl)c(Cl)c2)NC1=O: 5.05

Now for a further compound.
Query block: # pEC50 lookup, item CC(C)c1ccc(-n2cccc2/C=C2/C(=N)N3C=CSC3=NC2=O)cc1
Result block: 5.48

----------
Tgt: S. pyogenes SKKanGAS, kanamycin survival, BacTiterGlo, 6 h
Measurement Protocol: S. pyogenes SKKanGAS kanamycin growth inhibitors – SKKanGAS strain, luminescence, dose confirmation, streptokinase promoter inhibitor project, dose response (AID 1902);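 also: lower survival reflects blocked streptokinase promoter driving kanamycin resistance gene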
Calls of active or inactive are those of the source.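 Rule for the calls: active = EC50 no more than a set limit of log units above the highest dose; inactive = the rest.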
Quantity Measured: EC50

Please review the entries below; each comes with its answer.
COc1cc(C(=O)NNC(=S)NC(=O)c2ccc3c(c2)OCO3)cc(OC)c1OC: 1.63 µM
COc1ccc(NC(=O)CSc2nc3nc(-c4cccs4)cc(C(F)(F)F)c3c(=O)[nH]2)c(OC)c1: 7.42 µM
CCCOC(=O)c1ccc(Oc2cn[nH]c2-c2ccc(OCC)cc2O)cc1: 1.37 µM
CC[C@@H]1CC=C[C@H]2[C@H]1C(=O)N(Cc1ccccc1)[C@H]2c1ccc(OC)c(Cl)c1: 4.15 µM
O=C(Cc1cccs1)Nc1cccc(-c2nc3cc4ccccc4cc3[nH]2)c1: 4.25 µM
O=[N+]([O-])/C=C/c1ccc2c(ccn2Cc2ccccc2)c1: 3.04 µM
COc1cc(/C(C)=C/c2ccccc2)c2c(c1)oc1ccccc12: 4.04 µM
Cc1ccc(C(=O)Nc2nc(-c3ccccc3)c(-c3ccccc3)o2)cc1: 0.541 µM
Cc1oc(-c2ccc(F)cc2)nc1CN(Cc1ccccn1)CC1CCCO1 (stereo unspecified): 2 µM
CC(C)C1C(c2ccccc2)N(C)C(c2ccccc2)CC1(O)c1ccccc1 (stereo unspecified): 2.48 µM

Provide EC50 for all items below, preserving their order.
1. c1ccc(C(NCCNC(c2ccccc2)c2ccccc2)c2ccccc2)cc1
2. CCOC(=O)Cc1c(C)nc2c(-c3cccc(Br)c3)c[nH]n2c1=O
3. O=C(Cc1csc(Nc2nc(=S)[nH]c3ccccc23)n1)NCCCN1CCN(c2cccc(Cl)c2)CC1

Result block:
1. 1.05 µM
2. 3.53 µM
3. 6.12 µM

Provide EC50 for all items below, preserving their order.
1. FC(F)Oc1ccccc1C1CC(c2ccc(Br)s2)Nc2ncnn21 (stereo unspecified)
2. Cc1ccc(NC(=O)CN(C)Cc2nc3c(Br)cc(Br)cc3c(=O)[nH]2)cc1
3. COc1cc(OC)cc(C(=O)Nc2nc(CC(=O)NCc3ccccc3OC)cs2)c1
4. Fc1cccc2sc(Nc3nc4cc5c(cc4s3)OCO5)nc12
5. CCOC(=O)c1c(-c2ccc(C)o2)csc1NC(=O)COC(=O)c1ccc(NC(N)=O)cc1
6. COC(=O)c1cc(C(=O)Nc2nc3ccccc3[nH]2)cc([N+](=O)[O-])c1
7. O=C(N/N=C/c1c[nH]c2ccccc12)c1[nH]c2ccc(Br)cc2c1-c1ccccc1

Result block:
1: 2.83 µM; 2: 3.79 µM; 3: 12.4 µM; 4: > 15 µM (inactive); 5: 2.53 µM; 6: 8.85 µM; 7: 2.17 µM

Query block: Request - read-out EC50 | tested on S. pyogenes SKKanGAS, kanamycin survival, BacTiterGlo, 6 h | compound Cc1nnc(SCC2=C(C(=O)O)N3C(=O)C(NC(=O)C(C)n4nc(C(F)(F)F)cc4C)C3SC2)s1 (stereo unspecified)
Result block: 0.14 µM
